Target: T1, RALA, mGppNHp-bound (human, UniProt P11233 1-206)
T1 construct: human RALA; Loaded with mGppNHp
T1 sequence (looked up): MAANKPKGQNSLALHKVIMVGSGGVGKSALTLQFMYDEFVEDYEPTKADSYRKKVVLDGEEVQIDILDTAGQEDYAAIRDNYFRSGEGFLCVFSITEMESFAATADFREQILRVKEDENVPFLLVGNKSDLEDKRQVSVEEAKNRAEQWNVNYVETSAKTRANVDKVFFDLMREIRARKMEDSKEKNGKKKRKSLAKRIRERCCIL
Experiment: fluorescence polarisation; increasing concentrations of the RA/RB domain as MBP fusion protein (0.002-300 µM; or MBP alone) titrated to mGppNHp-bound RAS protein (1 µM); 30 mM Tris-HCl pH 7.4, 100 mM NaCl, 5 mM MgCl2, 3 mM DTT; Kd from a quadratic ligand-binding equation
Conditions: both partners purified
Listed next: entries and their corresponding Kd.
reportedMetric: Kd (µM)

{"binder": "RASSF5 RA domain, MBP fusion protein (domain or fragment, UniProt Q5EBH1 200-358, looked up, RASSF5 RA domain, aa 200-358 of Q5EBH1 as the methods print it; also called NORE1; RAPL) PPTIQEIKQKIDSYNSREKHCLGMKLSEDGTYTGFIKVHLKLRRPVTVPAGIRPQSIYDAIKEVNPAATTDKRTSFYLPLDAIKQLHISSTTTVSEVIQGLLKKFMVVDNPQKFALFKRIHKDGQVLFQKLSIADYPLYLRLLAGPDTDVLSFVLKENE", "experimentalResult": 49}
{"binder": "RASSF2 RA domain, MBP fusion protein (domain or fragment, human, UniProt P50749 176-264, looked up, RASSF2 RA domain, aa 176-264 of P50749) YNHKTSVFTPAYGSVTNVRINSTMTTPQVLKLLLNKFKIENSAEEFALYVVHTSGEKQKLKATDYPLIARILQGPCEQISKVFLMEKDQ", "experimentalResult": 167}
{"binder": "RASSF4 RA domain, MBP fusion protein (domain or fragment, human, UniProt Q9H2L5 174-262, looked up, RASSF4 RA domain, aa 174-262 of Q9H2L5) YNHKTSVFTPAYGSVTNVRVNSTMTTLQVLTLLLNKFRVEDGPSEFALYIVHESGERTKLKDCEYPLISRILHGPCEKIARIFLMEADL", "experimentalResult": 191}
{"binder": "RASSF7 RA domain, MBP fusion protein (domain or fragment, human, UniProt Q02833 6-89, looked up, RASSF7 RA domain, aa 6-89 of Q02833) AAMELKVWVDGIQRVVCGVSEQTTCQEVVIALAQAIGQTGRFVLVQRLREKERQLLPQECPVGAQATCGQFASDVQFVLRRTGP", "experimentalResult": 101}
{"binder": "RASSF8 RA domain, MBP fusion protein (domain or fragment, human, UniProt Q8NHQ8 1-82, looked up, RASSF8 RA domain, aa 1-82 of Q8NHQ8) MELKVWVDGVQRIVCGVTEVTTCQEVVIALAQAIGRTGRYTLIEKWRDTERHLAPHENPIISLNKWGQYASDVQLILRRTGP", "experimentalResult": 115}
{"binder": "RASSF1 RA domain, MBP fusion protein (domain or fragment, human, UniProt Q9NS23 194-288, looked up, RASSF1 RA domain, aa 194-288 of Q9NS23) RGPGRGTSVRRRTSFYLPKDAVKHLHVLSRTRAREVIEALLRKFLVVDDPRKFALFERAERHGQVYLRKLLDDEQPLRLRLLAGPSDKALSFVLK", "experimentalResult": 18}

Source: paper PMC8163975
